Biological target: 5-hydroxytryptamine receptor 1A (Rattus norvegicus)
Sequence (P19327 whole entry): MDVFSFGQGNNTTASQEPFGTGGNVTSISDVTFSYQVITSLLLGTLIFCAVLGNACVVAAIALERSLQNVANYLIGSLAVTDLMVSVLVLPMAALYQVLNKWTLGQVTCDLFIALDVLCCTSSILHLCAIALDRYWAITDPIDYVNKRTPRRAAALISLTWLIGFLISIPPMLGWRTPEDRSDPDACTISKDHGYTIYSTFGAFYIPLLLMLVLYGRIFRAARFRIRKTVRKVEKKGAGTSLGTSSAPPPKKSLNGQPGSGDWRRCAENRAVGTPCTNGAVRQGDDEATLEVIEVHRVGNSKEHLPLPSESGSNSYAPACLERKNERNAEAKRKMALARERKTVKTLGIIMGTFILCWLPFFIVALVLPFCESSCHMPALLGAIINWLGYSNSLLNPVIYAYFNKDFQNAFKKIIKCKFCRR
pIC50: −log10 of the molar value.
MEASUREMENT NAME: pIC50

* O=C(C1CCCCC1)N(CCN1CCN(c2ccccc2OCCCF)CC1)c1ccccn1 | 8.22
* O=C(C1CCCCC1)N(CCN1CCN(c2ccccc2OCCF)CC1)c1ccccn1 | 8.81
* O=C(C1CCCCC1)N(CCN1CCN(c2ccccc2O)CC1)c1ccccn1 | 8.68
* CS(=O)(=O)Oc1ccccc1N1CCN(CCN(C(=O)C2CCCCC2)c2ccccn2)CC1 | 8.14
* O=C(C1CCCCC1)N(CCN1CCN(c2ccccc2OS(=O)(=O)C(F)(F)F)CC1)c1ccccn1 | 7.44
* COc1ccccc1N(C)C1CCN(CCN(C(=O)C2CCCCC2)c2ccccn2)CC1 | 5.89
